# system-name: CYP2D6 (Homo sapiens, UniProt P10635)
# Sequence (P10635 whole entry): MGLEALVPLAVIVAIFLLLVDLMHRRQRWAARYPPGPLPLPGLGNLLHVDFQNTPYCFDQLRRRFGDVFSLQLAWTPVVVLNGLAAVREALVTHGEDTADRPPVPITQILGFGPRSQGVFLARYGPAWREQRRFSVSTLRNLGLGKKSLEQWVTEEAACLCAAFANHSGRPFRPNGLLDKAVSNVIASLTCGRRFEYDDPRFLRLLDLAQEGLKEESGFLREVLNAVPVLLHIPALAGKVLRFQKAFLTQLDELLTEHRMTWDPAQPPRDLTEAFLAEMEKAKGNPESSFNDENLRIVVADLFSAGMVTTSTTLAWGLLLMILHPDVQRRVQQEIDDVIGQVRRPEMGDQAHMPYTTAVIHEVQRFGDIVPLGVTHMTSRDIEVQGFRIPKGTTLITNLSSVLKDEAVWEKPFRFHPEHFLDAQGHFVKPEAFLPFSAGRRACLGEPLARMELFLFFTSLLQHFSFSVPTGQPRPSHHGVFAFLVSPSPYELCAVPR
# assay-comment: Inhibition of CYP2D6 in human liver microsomes at 10 uM using dextromethorphan as substrate preincubated for 5 mins followed by NADPH generating system addition and measured after 15 mins relative to control
# Type: ADME, Microsome
# assay-conditions: probe dextromethorphan, time 20 min
endpoint: inhibition at 0.25 h, 10 µM (%)
Could you give me the number in %? Just the number is fine.

Data request, read-out inhibition at 0.25 h, 10 µM, for COc1ccccc1Nc1c(N[C@H]2CC[C@H](Oc3ccc(C#N)cc3)CC2)c(=O)c1=O
86.2

====

# assay-comment: Volume of distribution at steady state in 16 hrs fasted ICR mouse at 2 mg/kg, iv measured upto 8 hrs by LC-MS/MS analysis
# Format: ADME, organism-based
# assay-conditions: in vivo, read-out: Vdss
endpoint: Vd (L/kg)
// return numeric value only (unit: L/kg, not printed)

Find the recorded Vd belonging to COc1ccccc1Nc1c(N[C@H]2CC[C@H](Oc3ccc([N+](=O)[O-])cc3)CC2)c(=O)c1=O and report it.
1.1
